B1: unnamed (parent)
chain 1: MGNYIKPLSAGVALIASDSTWIEGKAIQQLQTTAELDGMCRVVGLPDLHPGRGYPVGAAFFSVGRFYPALVGNDIGCGMALWETGLALGKLSADKLEKRLGNLDLPLDETWSDCIEALDLPAREHWRALGTIGGGNHFAELQQVETVFDQAALHALGLDADRLQLLVHSGSRGLGQAILQEHVSLHGHAGLLDGSLEASAYLARHADALRFAEGNRQLIARRILERLRCDGLELLDINHNLVVPAQVDGVDGWLHRKGATPADQGVLVIPGSRGDYSYLVEPVPSAQSLFSLAHGAGRKWQRGECRERLAARFSVDQLGRTRLGSRVICGDRQLIYEEAPEAYKGIDSVVGALLEAGLLRLVARLKPVLTYKTRGECCR
chain 2: MARKTKEESQKTRDGILDAAERVFLEKGVGTTAMADLADAAGVSRGAVYGHYKNKIEVCLAMCDRAFGQIEVPDENARVPALDILLRAGMGFLRQCCEPGSVQRVLEILYLKCERSDENEPLLRRRELLEKQGQRFGLRQIRRAVERGELPARLDVELASIYLQSLWDGICGTLAWTERLRDDPWNRAERMFRAGLDSLRSSPYLLLADA

variants of: B1; experiment: bacterial 2-hybrid assay (β-galactosidase activity in E. coli SU202); conditions: with partner chain of the complex shown; IPTG-induced cells; read off a plot
measured-endpoint: response (Miller Units)

[
  {
    "variant-designation": "chain 1 G252S",
    "readout-unit": "Miller Units",
    "observed-value": 700
  },
  {
    "variant-designation": "chain 1 R216C",
    "readout-unit": "Miller Units",
    "observed-value": 720
  },
  {
    "variant-designation": "chain 1 G76S",
    "readout-unit": "Miller Units",
    "observed-value": 470
  },
  {
    "variant-designation": "chain 1 R221Q",
    "readout-unit": "Miller Units",
    "observed-value": 510
  },
  {
    "variant-designation": "chain 1 R221W",
    "readout-unit": "Miller Units",
    "observed-value": 680
  },
  {
    "variant-designation": "chain 1 G231D",
    "readout-unit": "Miller Units",
    "observed-value": 730
  },
  {
    "variant-designation": "chain 1 P68S",
    "readout-unit": "Miller Units",
    "observed-value": 610
  }
]
